For each of the compounds below, state its TGI.
# System: SK-MEL-2 melanoma
# procedure text: NCI tumour cell line growth inhibition, 48 h

COc1ccc(-c2cc(=O)n(-c3nc4ccccc4[nH]3)[nH]2)cc1OC :: 23.6 µM
Cc1ccc2nc3ccccc3c(NCc3ccc(Cl)cc3)c2c1 :: 17.3 µM
Cc1cc2c(c(C(N)=O)c1C)-c1cccc(F)c1C2=O :: > 100 µM
Nc1cc2c(c3ccccc13)C(CCl)CN2C(=O)c1cc2cc(NC(=O)Nc3ccc4[nH]c(C(=O)N5CC(CCl)c6c5cc(N)c5ccccc65)cc4c3)ccc2[nH]1 (stereo unspecified) :: 2.17 µM
Cn1cnc(N)c(N=O)c1=O :: > 10 µM
O=C(Oc1cccc(Cl)c1)c1ccccc1Nc1ccnc(C(F)(F)F)c1 :: > 100 µM

Return reported TGI values for all items listed beneath this line.
1. O[C@@H]1C=C[C@]23CCN(Cc4cc5c(cc42)OCO5)[C@@H]3C1
2. C[C@@H]1[C@@H](C)C(c2ccccc2)O[Si]1(C(C)(C)C)C(C)(C)C (stereo partly specified)
3. O=C1c2cc(Cc3ccccc3)c(=O)c(Cc3ccccc3)cc2C(=O)c2cc(Cc3ccccc3)c(=O)c(Cc3ccccc3)cc21
4. C/C(=C\c1ccn(-c2ccccc2N)n1)[C@@H]1C[C@@H]2O[C@]2(C)CCC[C@H](C)[C@H](O)[C@@H](C)C(=O)C(C)(C)[C@@H](O)CC(=O)O1
5. C/C=C(\C)C(=O)OC1CC(OC(C)=O)C2(C(=O)OC)COC3C2C1(C)C1C2(C(=O)OC)OCC1(C3O)C1(O)C3CC(C4(O)C=COC4O3)C1(C)O2 (stereo unspecified)

Given back:
1. > 100 µM
2. 29.3 µM
3. > 100 µM
4. > 50 µM
5. > 100 µM

---

# Test system: HOP-92 NSCLC
# procedure text: NCI tumour cell line growth inhibition, 48 h
Would you mind telling me the reported TGI of each entry?

Field: example entries. Status: answers known.
CC(C)N(C(=O)c1cccc(C(=O)N(C(C)C)C(C)C)c1)C(C)C :: > 100 µM
COc1ccc(C#Cn2nnc3ccccc32)cc1 :: > 100 µM
Cc1cc(N(CCC#N)S(=O)(=O)c2ccccc2)ccc1/C=C1\N=C(c2ccc(Cl)cc2)OC1=O :: > 100 µM
CSC(=S)Nc1cc(C)cc(C)n1 :: > 31.6 µM
O=C(CCN1CCCC1)Nc1ccc2c(NCc3ccccc3)c3ccccc3nc2c1 :: 2.19 µM
COc1ccccc1/C=C1\COc2ccc(-c3ccccc3)cc2C1=O :: > 100 µM
Cc1ccc(S(=O)(=O)NC(CCC(=O)NNc2ccccc2)C(=O)NNc2ccccc2)cc1 (stereo unspecified) :: > 100 µM
NC(=N\N=C/c1ccc(O)cc1)/C(N)=N\N=C/c1ccc(O)cc1 :: > 100 µM
CCOC(=O)N1C/C(=C\c2ccccc2)C(=O)/C(=C/c2ccccc2)C1 :: 22.4 µM
NS(=O)(=O)c1nc(S(=O)(=O)O)c2[nH]cnc2n1 :: > 100 µM

Asked: Using the record for `O=C(NNC(=S)Nc1ccccc1)c1nsc2ccccc12` , report its TGI.
Given back: 90.5 µM

---

# Tested on: CCRF-CEM leukemia
# procedure text: NCI tumour cell line growth inhibition, 48 h; in the data active means GI50 below about 0.43 µM; inactive means the rest
Pick one: class 1 (active), class 0 (inactive)

Known results for compounds:
CCCCCCCCCCCC1=NC(C)(C)CN1C(C)(C)CO :: class 0
C/C(=C\c1ccn(-c2ccccc2N)n1)[C@@H]1C[C@@H]2O[C@]2(C)CCC[C@H](C)[C@H](O)[C@@H](C)C(=O)C(C)(C)[C@@H](O)CC(=O)O1 :: class 1
CCCn1c2c(c3c(O)cccc31)C(=O)c1ccccc1-2 :: class 0
CN1CCN(Cc2c[nH]c3c2C(=O)c2c(c(O)c4ccccc4c2O)C3=O)CC1 :: class 0

Turning now to a further record.
Asked: How was `Cc1ccc(S(=O)(=O)Oc2ccc3c4c(c(=O)oc3c2)CCCCCC4)cc1` classified in this test?
Given back: class 0
